# Protocol description: Peptide solubility evaluation: dissolution in DMSO, dilution in D5W with or without succinate
# Format: physicochemical
# Experimental parameters: DMSO/D5W/succinate; Table 4; Y/N; read-out: Solubility in DMSO/D5W/Succinate
Record form. Attribute: solubility. Fill in for each entry.

Substance	solubility
H-SYDSVIRELLQKPNVRVVVL-OH [CS7425]	< 2 mg/mL
H-AESAQRQGPLGGGEQSANEF-OH [CS7417]	> 2 mg/mL
H-LLTDRNTSGTTFTLLGVSDYPELQVPIPQAGLG-OH [CS7408]	> 2 mg/mL

Report solubility for H-LLTDRNTSGTTFTLLGVSDYPELQVP-OH [CS7409] please.
> 2 mg/mL

====

# Protocol description: pH of peptide solutions
# Type: physicochemical
Can you tell me pH of peptides in DMSO/D5W/5 mM S. Succinate spike for the items I'm about to list?
Numbers only.

Reference set (5 entries):
Substance	Quantitative result
H-WDGPPENDMLLKEICGSLIP-OH [CS7432]	6.22
H-GTKALQLHSIAGRWPRMEPWVVESMSLGVP-OH [CS7415]	6.61
H-AESAQRQGPNGGGEQSANEF-OH [CS7416]	6.31
H-VAGLAASGLHGSAWLVPGEQPVSGPHHGKQ-OH [CS6931]	6.42
H-SYDSVIRELLQKPNVRVVVL-OH [CS7425]	6.44

// batch mode: one pH of peptides in DMSO/D5W/5 mM S. Succinate spike value per listed entry
1. H-ALSLTPGLRIGPSGLFLVFLAESAVDKGHPNRS-OH [CS7410]
2. H-AESAQRQGPLGGGEQSANEF-OH [CS7417]
3. H-PLMQTELHQLVPEADPEEMA-OH [CS7430]
4. H-LLTDRNTSGTTFTLLGVSDYPELQVPIPQAGLG-OH [CS7408]
5. H-KLAWRGRISSSGCPSMTSPPSPMFGMTLHT-OH [CS6919]
6. H-KKNITNLSRLVVRPDTDAVY-OH [CS7431]

6.46
6.28
6.23
6.31
6.74
6.45

Name the recorded pH of peptides in DMSO/D5W/5 mM S. Succinate spike for H-IGALNPKRAAFFAEHYESWE-OH [CS7420] .
6.38

====

# Protocol description: Peptide solubility evaluation: dissolution in DMSO, dilution in D5W with or without succinate
# Type: physicochemical
# Experimental parameters: DMSO/D5W; Table 4; Y/N; diluted to 2 mg/ml; read-out: Solubility In DMSO/D5W
Please respond with reported solubility for every item in the list.

Completed entries (count: 4):
Substance	solubility
H-LPVFIGNIAVNHAPVSLRPGLGLPPGAPPLVVP-OH [CS6730]	> 2000 µg/mL
H-LAASGLHGSAWLVPGEQPVSGPHHGKQPAGV-OH [CS6930]	> 2000 µg/mL
H-LSVPFTCGVNFGDSIEDLEI-OH [CS7428]	< 2000 µg/mL
H-GTYLQGTASALSQSQERPPSVNRVPPSSPSSQE-OH [CS6725]	> 2000 µg/mL

Kindly give each listed record's solubility.
1. H-GASRRSSASQGAGSLGLSEEKTLRSGGGP-OH [CS6781]
2. H-KPKKVAGAATPKKSIKRTPKKVKKPATAAGTKK-OH [CS6717]
3. H-SPTEPSTKLPGFDSCGNTEIAERKIKRIYGGFK-OH [CS6720]
4. H-DASDFLPDTQLFPHFTELLLPLDPLEGSSV-OH [CS6935]
5. H-DSAVDKGHPNRSALSLTPGLRIGPSGIPQAGLG-OH [CS6726]
6. H-VSWGKKVQPIDSILADWNEDIEAFEMMEKD-OH [CS6942]

1: > 2000 µg/mL; 2: > 2000 µg/mL; 3: > 2000 µg/mL; 4: < 2000 µg/mL; 5: > 2000 µg/mL; 6: < 2000 µg/mL

Look at each substance and report its solubility.
1. H-PQLAGGGGSGAPGEHPLLPGGAPLPAGLF-OH [CS6716]
2. H-SHVEKAHITAESAQRQGPNGGGEQSANEF-OH [CS6708]
3. H-FRLIWRSVKNGKSSREQELSWNCSHQVPSLGA-OH [CS6917]
4. H-SYDSVIRELLQKPNVRVVVL-OH [CS7425]
5. H-KKEKAEKLEKERQRHISKPLLGGPFSLTTHTGE-OH [CS6718]
6. H-PIQVFYTKQPQNDYLHVALVSVFQIHQEAPSSQ-OH [CS6729]

["> 2000 µg/mL", "> 2000 µg/mL", "> 2000 µg/mL", "> 2000 µg/mL", "> 2000 µg/mL", "> 2000 µg/mL"]

====

# Protocol description: Dissolution of peptide in D5W without using DMSO
# Type: physicochemical
# Experimental parameters: small amount of peptide (<1 mg)
Property measured: Dissolution directly in D5W without using DMSO

Substance	Result
H-LKDSNSWPPSNKRGFDTEDAHKSNATPVP-OH [CS6712]	could be dissolved
H-DSAVDKGHPNRSALSLTPGLRIGPSGIPQAGLG-OH [CS6726]	could be dissolved
H-SPTEPSTKLPGFDSCGNTEIAERKIKRIYGGFK-OH [CS6720]	could be dissolved
H-LTDLPGRIRVAPQQNDLDSPQQISISNAE-OH [CS6709]	could be dissolved

====

Assignment: determine reported pH of peptides in DMSO/D5W/5 mM S. Succinate spike for the given substances.
# Protocol description: pH of peptide solutions
# Format: physicochemical
Where no end group is shown, it is not given here.
Answers are plain numbers.

Observe how each entry below is paired with its result.
Substance	Quantitative result
KGASLDAGWGSPRWTTTRMTSASAGRSTRA [CS7414]	6.71
H-YLLPKTAVVLRCPALRVRKP-OH [CS7418]	6.76
H-LPVFIGNIAVNHAPVSLRPGLGLPPGAPPGTVP-OH [CS7438]	6.78
H-LRVFIGNIAVNHAPVSLRPGLGLPPGAPPGTVP-OH [CS7412]	6.61
H-AHRQGEKQHLLPVFSRLALRLPWRHSVQL-OH [CS6941]	6.49
H-VQLSIQDVIRRARLSTVPTAQRVALRSGWI-OH [CS7413]	6.73
H-LLTDRNTSGTTFTLLGVSDYPELQVP-OH [CS7409]	6.32
H-SKRGVGAKTLLLPDPFLFWPCLEGTRRSL-OH [CS6934]	6.57
H-DSAVDKGHPNRSALSLTPGLRIGPSGLFLVFLA-OH [CS7411]	6.53
H-VEQGHVRVGPDVVTHPAFLV-OH [CS7427]	6.34

Consider now this further substance.
Query: pH of peptides in DMSO/D5W/5 mM S. Succinate spike; subject: H-SGQPAPEETVLFLGLLHGLLLILRRLRGG-OH [CS6937]
6.51

====

# Protocol description: Peptide solubility evaluation: dissolution in DMSO, dilution in D5W with or without succinate
# Format: physicochemical
# Experimental parameters: DMSO/D5W; Table 4; Y/N; diluted to 2 mg/ml; read-out: Solubility In DMSO/D5W
Property measured: solubility

Use the examples below as a reference point.
Substance	solubility
H-RGLHSQGLGRGRIAMAQTAGVLRSLEQEE-OH [CS6711]	> 2000 µg/mL
H-LLTDRNTSGTTFTLLGVSDYPELQVPLFLVFLA-OH [CS6783]	< 2000 µg/mL
H-EEGLLPEVFGAGVPLALCPAVPSAAKPHRPRVL-OH [CS6933]	> 2000 µg/mL
H-APALGPGAASVASRCGLDPALAPGGSHMLRA-OH [CS6927]	> 2000 µg/mL
H-DMAWRRNSRLYWLIKMVEQWQEQHLPSLSS-OH [CS6943]	> 2000 µg/mL

Please give solubility for each item listed below.
1. H-PIERVKKNLLKKEYNVSDDSMKLGGNNTSEKAD-OH [CS6721]
2. H-GLLSDGSGLGQITWASAEHLQRPGAGAELA-OH [CS6914]

["> 2000 µg/mL", "> 2000 µg/mL"]
